# System: Factor VII
# Test Protocol: Factor VII activity assay, in vivo liver delivery of FVII siRNA LNP
# Set-up: species or system mouse
# Test Parameters: dose 3 mg/kg siRNA i.v., ~48 h; lipid/no neutral lipid/CHOL/AVANTI 880150P 50/0/46/4, N/P 3.43
Overview of recorded FVII inhib % for various compounds
Only the number, expressed in %, is required.

Example entries and their recorded answers appear below.
{"columns": ["Compound", "Unit", "FVII inhib %"],
 "data": [
  ["CCCCC/C=C\\C/C=C\\CCCCCCCCOCC(CN1CC2CCCN(C(=O)OC(C)(C)C)C2C1)OCCOCCO[C@H]1CC[C@@]2(C)C(=CCC3C2CC[C@@]2(C)C3CC[C@@H]2[C@H](C)CCCC(C)C)C1 (stereo partly drawn)", "%", 17.6],
  ["CCCCC/C=C\\C/C=C\\CCCCCCCCOCC(CN1CCC(N2CCCCC2)CC1)OCCOCCO[C@H]1CC[C@@]2(C)C(=CCC3C2CC[C@@]2(C)C3CC[C@@H]2[C@H](C)CCCC(C)C)C1 (stereo partly drawn)", "%", 41],
  ["CCCCC/C=C\\C/C=C\\CCCCCCCCOCC(CN1CC2CCCC2C1)OCCOCCO[C@H]1CC[C@@]2(C)C(=CC[C@H]3[C@@H]4CC[C@H]([C@H](C)CCCC(C)C)[C@@]4(C)CC[C@@H]32)C1 (stereo partly drawn)", "%", 87.8],
  ["CCCCC/C=C\\C/C=C\\CCCCCCCCOCC(CN(C)C)OCCCCO[C@H]1CC[C@@]2(C)C(=CCC3C2CC[C@@]2(C)C3CC[C@@H]2[C@H](C)CCCC(C)C)C1 (stereo partly drawn) [E0173, reference compound]", "%", 98.5],
  ["CCCCC/C=C\\C/C=C\\CCCCCCCCOCC(CN1CCC(C)(C)C1)OCCOCCO[C@H]1CC[C@@]2(C)C(=CC[C@H]3[C@@H]4CC[C@H]([C@H](C)CCCC(C)C)[C@@]4(C)CC[C@@H]32)C1 (stereo partly drawn)", "%", 95.1],
  ["CCCCC/C=C\\C/C=C\\CCCCCCCCOCC(CN1CC[C@@H]2CCCC[C@H]2C1)OCCOCCO[C@H]1CC[C@@]2(C)C(=CCC3C2CC[C@@]2(C)C3CC[C@@H]2[C@H](C)CCCC(C)C)C1 (stereo partly drawn)", "%", 51.4]
]}

Prompt: Dear colleague, please send me the reported FVII inhib % for CCCCC/C=C\C/C=C\CCCCCCCCOC[C@H](CN1CCCCC1)OCCOCCO[C@H]1CC[C@@]2(C)C(=CCC3C2CC[C@@]2(C)C3CC[C@@H]2[C@H](C)CCCC(C)C)C1 (stereo partly drawn) when you can.
Response: −11.7

Prompt: Please indicate FVII inhib % recorded for CCCCC/C=C\C/C=C\CCCCCCCCOCC(CN1CCC[C@H]1C)OCCOCCO[C@H]1CC[C@@]2(C)C(=CCC3C2CC[C@@]2(C)C3CC[C@@H]2[C@H](C)CCCC(C)C)C1 (stereo partly drawn)
Response: 78.8

Prompt: Provide measured FVII inhib % value, entry: CCCCC/C=C\C/C=C\CCCCCCCCOCC(CN1CCC[C@@H]1C)OCCOCCO[C@H]1CC[C@@]2(C)C(=CCC3C2CC[C@@]2(C)C3CC[C@@H]2[C@H](C)CCCC(C)C)C1 (stereo partly drawn)
Response: 88.5
